system: HEK-293T; test: Multiplex assay against HEK293T; assay type: toxicity, cell-based; conditions: human, 48 h, 10 µM, compound concentration 10 uM, replicate 2
Mark Not fulfilled for Total Cell Count values under 600, and Fulfilled for everything at or above.

Input: Has COc1cc2nc(N3CCN(C(=O)c4ccco4)CC3)nc(N)c2cc1OC.Cl [PRAZOSIN HYDROCHLORIDE] a recorded Total Cell Count greater than or equal to 600?
Output: Fulfilled

Input: What would you report for CCCCC[C@H](O)/C=C/[C@H]1[C@H](O)CC(=O)[C@@H]1CCCCCCC(=O)O [ALPROSTADIL] ?
Output: Not fulfilled

Input: COc1cc(C(=O)N2CC[C@@H](O)[C@@H](N)C2)cc2nc(-c3cc4ccccc4n3CC3CC3)n(C)c12.Cl ?
Output: Not fulfilled

Input: Same again, this time with O=C(Nc1cc(-c2ccccc2)nn1-c1ccccc1F)c1ccc([N+](=O)[O-])cc1
Output: Fulfilled

Input: Another compound to check: CN1CCN(c2ccc(Nc3c4ccccc4nc4ccccc34)cc2)CC1.Cl.Cl.O
Output: Not fulfilled

More entries:
Input: Check the entry CSc1nc(NC2CCCC2)c([N+](=O)[O-])c(NC2CCCC2)n1 [GS-39783] : does Total Cell Count equal or exceed 600?
Output: Fulfilled

Input: And then Cc1cc(O)c(-c2ccc([C@@H](C)CN(C)C)cc2)c2c1[nH]c(=O)c1sccc12 , what is it?
Output: Not fulfilled

Input: // repeat for Cc1cc(=O)n(C)c2cc(N3C(=O)CC[C@H](NS(=O)(=O)CC(C)C)[C@H]3c3ccc(Cl)cc3)ccc12 and report
Output: Not fulfilled

Input: // query: Cc1cc(-c2ccc3c(c2)CC[C@H]3N2CC3(CCN(C(=O)Cc4cn5cc(C)sc5n4)CC3)C2)ncn1 [PF-5190457]
Output: Not fulfilled

Input: What about COc1c(Nc2ccc(S(C)(=O)=O)nc2C)ncnc1OC1CCN(C(=O)OC(C)C)CC1 [ADP-597] ?
Output: Not fulfilled
